Protocol Notes: Dissociation constant, pKa2 of compound by potentiometric method
Type: physicochemical
Measure: pKa
Lab note: record the figure alone, no unit after it.

// known answers, use as guide
Chemical Smiles | pKa
CC#C[C@@H](CC(=O)O)c1ccc(OCc2ccc(CN3CCCc4cccc(OC)c43)s2)cc1 | 6
O=C(O)CCc1ccc(OCc2ccc(CN3CCC4(C=Cc5ccccc54)CC3)cc2)cc1F | 7.7
CC#C[C@@H](CC(=O)O)c1ccc(OCc2ccc(CN3CCC4(C=Cc5ccccc54)CC3)s2)cc1 | 7.4
CC#C[C@@H](CC(=O)O)c1ccc(OCc2ccc(CN3CCC4(C=Cc5ccccc54)CC3)cc2)cc1 | 8.1

Looking for the measured pKa of `CC#C[C@@H](CC(=O)O)c1ccc(OCc2ccc(CN3CCC4(CC3)CN(C)c3ccccc34)cc2)cc1` , can you help?
8.3

Reported pKa for `CC#C[C@@H](CC(=O)O)c1ccc(OCc2ccc(CN3CCC4(CCc5ccccc54)CC3)s2)cc1` : what is it?
7.9

What value of pKa has been reported for the following compound? `CC#C[C@@H](CC(=O)O)c1ccc(OCc2ccc(CN3CCC4(CCc5ccccc54)CC3)cc2)cc1`
8.6

====

Target Of Assay: Free fatty acid receptor 1 (Homo sapiens)
Sequence (O14842 whole entry): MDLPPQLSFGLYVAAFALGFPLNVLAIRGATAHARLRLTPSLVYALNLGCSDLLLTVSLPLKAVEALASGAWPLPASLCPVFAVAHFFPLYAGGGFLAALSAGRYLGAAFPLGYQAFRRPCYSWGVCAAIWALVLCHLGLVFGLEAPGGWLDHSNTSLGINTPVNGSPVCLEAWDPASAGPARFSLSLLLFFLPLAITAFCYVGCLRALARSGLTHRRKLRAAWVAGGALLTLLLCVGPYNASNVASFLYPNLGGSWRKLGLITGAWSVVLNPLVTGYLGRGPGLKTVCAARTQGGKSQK
Protocol Notes: Displacement of [3H]-(S)-2-(6-((2',6'-dimethyl-4'-(3-(methylsulfonyl)propoxy)biphenyl-3-yl)methoxy)-2,3-dihydrobenzofuran-3-yl)acetic acid from human recombinant full-length GPR40 expressed in human HEK293 cell membrane assessed as dissociation constant measured after 2 hrs by radioligand competitive assay
The following compounds are listed with their measured Kd values.
Answer with a number only, understood to be in nM.

Compound | Unit Label | Reported Result
CC#C[C@@H](CC(=O)O)c1ccc(OCc2ccc(CN3CCC4(C=Cc5ccccc54)CC3)cc2)cc1 [LY2881835] | nM | 2.5

Name the reported Kd value associated with the compound `CC#C[C@@H](CC(=O)O)c1ccc(OCc2ccc(CN3CCC4(C=Cc5ccccc54)CC3)s2)cc1`
2

Sample `CC#C[C@@H](CC(=O)O)c1ccc(OCc2ccc(CN3CCC4(CC3)CN(C)c3ccccc34)cc2)cc1` — what was its Kd?
9.5

For the compound `O=C(O)CCc1ccc(OCc2ccc(CN3CCC4(C=Cc5ccccc54)CC3)cc2)cc1F` , what Kd is on record?
58

====

Protocol Notes: Elimination half-life in rat plasma at 3 mg/kg, po or 1 mg/kg, iv by LC/MS/MS analysis
Assay type: ADME, organism-based
Particulars: read-out: beta t1/2 (converted)
Measure: half-life (h)
Numbers only; they are read as h.

Chemical Smiles | Unit Label | Reported Result
CC#C[C@@H](CC(=O)O)c1ccc(OCc2ccc(CN3CCC4(CCc5ccccc54)CC3)s2)cc1 | h | 2

Now for another entry.
Item under review: `CC#C[C@@H](CC(=O)O)c1ccc(OCc2ccc(CN3CCCc4cccc(OC)c43)s2)cc1` . Reported half-life?
5.6

====

Protocol Notes: Clearance in rat plasma at 3 mg/kg, po or 1 mg/kg, iv by LC/MS/MS analysis
Assay type: ADME, organism-based
Measure: clearance (mL/min/kg)
Supply the numeric figure in mL/min/kg, leaving out any unit text.

Chemical Smiles | clearance, mL/min/kg
CC#C[C@@H](CC(=O)O)c1ccc(OCc2ccc(CN3CCCc4cccc(OC)c43)s2)cc1 | 3.8

State the recorded clearance for this entry: `CC#C[C@@H](CC(=O)O)c1ccc(OCc2ccc(CN3CCC4(CCc5ccccc54)CC3)s2)cc1`
20

====

Protocol Notes: Elimination half-life in rat plasma at 10 mg/kg, po or 3 mg/kg, iv by LC/MS/MS analysis
Particulars: read-out: beta t1/2 (converted)
Measure: half-life (h)
Number only, in h; omit the unit.

# query: half-life of entry `CC#C[C@@H](CC(=O)O)c1ccc(OCc2ccc(CN3CCC4(C=Cc5ccccc54)CC3)cc2)cc1`
2

====

The compounds listed here are annotated with their Vd.
Protocol Notes: Volume of distribution at steady state in rat at 3 mg/kg, po or 1 mg/kg, iv by LC/MS/MS analysis
Assay type: ADME, organism-based
Particulars: in vivo, read-out: Vdss

Chemical Smiles | Measure | Reported Result
CC#C[C@@H](CC(=O)O)c1ccc(OCc2ccc(CN3CCCc4cccc(OC)c43)s2)cc1 | Vd | 1.2 L/kg

Here is another compound to look at.
Return reported Vd; argument: `CC#C[C@@H](CC(=O)O)c1ccc(OCc2ccc(CN3CCC4(CCc5ccccc54)CC3)s2)cc1`
0.8 L/kg

====

Protocol Notes: Oral bioavailability in mouse at 3 mg/kg by LC/MS/MS analysis
Type: ADME, organism-based
Particulars: in vivo
# Lookup of reported bioavailability keyed by entry
Kindly format the answer as number then unit.

Chemical Smiles | bioavailability
CC#C[C@@H](CC(=O)O)c1ccc(OCc2ccc(CN3CCC4(CCc5ccccc54)CC3)s2)cc1 | 21%

// next item, bioavailability requested
For the molecule `CC#C[C@@H](CC(=O)O)c1ccc(OCc2ccc(CN3CCCc4cccc(OC)c43)s2)cc1` , what bioavailability is on record?
62%

====

Protocol Notes: Tmax in type 2 diabetic mellitus human at 540 mg, po administered as single dose
Assay type: ADME, organism-based
Particulars: in vivo
Measure: Tmax

Fill in the blank: the reported Tmax of `CC#C[C@@H](CC(=O)O)c1ccc(OCc2ccc(CN3CCCc4cccc(OC)c43)s2)cc1` is ____.
4 h

====

Protocol Notes: Oral bioavailability in mouse at 10 mg/kg by LC/MS/MS analysis
Assay type: ADME, organism-based
Particulars: in vivo
Measure: bioavailability (%)
The reply should be a number in %, with the unit left off.

Quick check: bioavailability of `CC#C[C@@H](CC(=O)O)c1ccc(OCc2ccc(CN3CCC4(C=Cc5ccccc54)CC3)cc2)cc1` ?
64

====

Protocol Notes: AUC ( 0 to infinity) in type 2 diabetic mellitus human at 540 mg, po administered as single dose
Type: ADME, organism-based
Design: route oral, time infinity, dose 540 mg
Particulars: in vivo
Measure: AUC(0-inf)
Give the value; after it, write the unit.

# lookup: AUC(0-inf) of `CC#C[C@@H](CC(=O)O)c1ccc(OCc2ccc(CN3CCCc4cccc(OC)c43)s2)cc1`
41400 ng·h/mL

====

Protocol Notes: AUC in hyperglycemic Balb/c mouse plasma at 1 mg/kg measured upto 60 mins
Assay type: ADME, organism-based
Parameters: dose 1 mg/kg, time <=60
Measure: AUC at 1 h (µg·h/mL)
Answer format: numeric, µg·h/mL implied, no suffix.

Would you mind telling me what AUC at 1 h value was observed for `CC#C[C@@H](CC(=O)O)c1ccc(OCc2cccc(-c3ccc(C(F)(F)F)cc3)c2)cc1` ?
33.9

====

Protocol Notes: Cmax in type 2 diabetic mellitus human at 270 mg, po administered as single dose
Assay type: ADME, organism-based
Design: route oral, dose 270 mg
Particulars: in vivo
Measure: Cmax (ng/mL)
Report the figure in ng/mL without appending any unit label.

Which Cmax value belongs to `CC#C[C@@H](CC(=O)O)c1ccc(OCc2ccc(CN3CCCc4cccc(OC)c43)s2)cc1` ?
2000

====

Target Of Assay: Free fatty acid receptor 1 (Rattus norvegicus)
Sequence (Q8K3T4 whole entry, the tested form may be a part): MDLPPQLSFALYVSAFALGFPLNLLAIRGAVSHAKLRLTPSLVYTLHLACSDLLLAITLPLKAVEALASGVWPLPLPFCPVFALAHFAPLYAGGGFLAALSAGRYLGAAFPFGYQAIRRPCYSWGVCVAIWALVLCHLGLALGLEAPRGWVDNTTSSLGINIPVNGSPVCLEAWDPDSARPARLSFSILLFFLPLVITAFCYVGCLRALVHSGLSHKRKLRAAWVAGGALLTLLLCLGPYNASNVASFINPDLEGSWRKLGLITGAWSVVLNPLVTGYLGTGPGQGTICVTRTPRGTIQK
Protocol Notes: Agonist activity at Prolink-tagged rat GPR40 fused with EA-tagged beta-arrestin expressed in human U2OS cells assessed as induction of beta-arrestin recruitment measured after 90 mins by beta-galactosidase based PathHunter assay
Below, each of the compounds is paired with its reported pEC50 value.
Reminder that pEC50 is minus the log10 of a molar concentration.

A selection of reference data follows.
Chemical Smiles | pEC50
CC#C[C@@H](CC(=O)O)c1ccc(OCc2ccc(CN3CCC4(CCc5ccccc54)CC3)s2)cc1 | 8.77
O=C(O)CCc1ccc(OCc2ccc(CN3CCC4(C=Cc5ccccc54)CC3)cc2)cc1F | 6.80
CC#C[C@H](CC(=O)O)c1ccc(OCc2ccc(CN3CCC4(C=Cc5ccccc54)CC3)cc2)cc1F | 6.38
CC#C[C@@H](CC(=O)O)c1ccc(OCc2ccc(CN3CCC4(C=Cc5ccccc54)CC3)c(Cl)c2)cc1 | 9.00

Look up pEC50 for this compound: `CC#C[C@@H](CC(=O)O)c1ccc(OCc2cnc(CN3CCC4(C=Cc5ccccc54)CC3)s2)cc1`
7.96

Please report the recorded pEC50 for `O=C(O)C[C@@H](c1ccc(OCc2ccc3nc(-c4ccccc4)nn3c2)cc1)c1ccon1` .
4.85

What value of measured pEC50 is listed for `CC#C[C@@H](CC(=O)O)c1ccc(OCc2ccc(CN3CCC4(CC3)CN(c3ccccc3)c3ccccc34)cc2)cc1` ?
9.08

For `CC#C[C@@H](CC(=O)O)c1ccc(OCc2ccc(CN3CCC4(CC3)CN(C)c3ccc(C)cc34)cc2)cc1` , what is its reported pEC50?
8.34

If you can, please state the reported pEC50 value of `O=C(O)CCc1ccc(OCc2ccc(CN3CCC4(C=Cc5ccccc54)CC3)cc2)cc1Cl` .
6.27
